system: UniProt:Q13547
Sequence (Q13547 whole entry): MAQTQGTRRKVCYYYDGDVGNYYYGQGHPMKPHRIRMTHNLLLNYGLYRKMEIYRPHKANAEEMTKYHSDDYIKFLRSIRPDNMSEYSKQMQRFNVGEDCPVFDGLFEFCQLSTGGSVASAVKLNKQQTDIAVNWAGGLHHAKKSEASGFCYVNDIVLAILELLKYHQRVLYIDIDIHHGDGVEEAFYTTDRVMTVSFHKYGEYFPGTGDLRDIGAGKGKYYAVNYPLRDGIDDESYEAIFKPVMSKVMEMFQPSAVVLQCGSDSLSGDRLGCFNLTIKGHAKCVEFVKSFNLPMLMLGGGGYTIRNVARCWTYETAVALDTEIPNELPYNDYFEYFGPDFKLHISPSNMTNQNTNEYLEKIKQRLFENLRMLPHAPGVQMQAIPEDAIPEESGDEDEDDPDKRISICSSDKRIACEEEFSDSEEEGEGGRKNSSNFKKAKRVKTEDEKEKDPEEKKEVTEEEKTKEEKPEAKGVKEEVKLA
protocol_description: Inhibition of human HDAC1 (unknown origin) at 1 uM using Fluor de Lys substrate fluorimetric assay
outcome_measure: inhibition

Problem: Which inhibition is listed for CCCCCCCC(=O)SCC/C=C/[C@@H]1CC(=O)NCc2nc(cs2)C2=N[C@@](C)(CS2)C(=O)N[C@@H](Cc2cccc3ccccc23)C(=O)O1 ?
Solution: > 90%

Problem: Entry CCCCCCCC(=O)SCC/C=C/[C@@H]1CC(=O)NCc2nc(cs2)C2=N[C@@](C)(CS2)C(=O)N[C@@H](C(C)C)C(=O)O1 has what inhibition?
Solution: > 90%

Problem: Given the entry C=CC[C@@H]1NC(=O)[C@]2(C)CSC(=N2)c2csc(n2)CNC(=O)C[C@@H](/C=C/CCSC(=O)CCCCCCC)OC1=O , report its measured inhibition.
Solution: > 90%

Problem: Query: inhibition; subject: CCCCCCCC(=O)SCC/C=C/[C@@H]1CC(=O)NCc2nc(cs2)C2=N[C@](C)(CS2)C(=O)N[C@@H](C(C)C)C(=O)O1
Solution: < 15%

Problem: Sample CCCCCCCC(=O)SCC/C=C/[C@@H]1CC(=O)NCc2nc(cs2)C2=N[C@@](C)(CS2)C(=O)N[C@H](Cc2cccc3ccccc23)C(=O)O1 — what was its inhibition?
Solution: < 15%

Reference for the values: ChEMBL document CHEMBL3352516
